- Test system: NCI/ADR-RES
- protocol.text: NCI tumour cell line growth inhibition, 48 h
The source made the active and inactive calls. Cut-off read from the data, not from the text of the source: active = GI50 up to about 1.1 µM and inactive = higher.
metric: GI50

{"compound.structure": "CN(CCNC(=O)c1cc(-c2ccccc2)nc2ccccc12)CCNC(=O)c1cc(-c2ccccc2)nc2ccccc12", "GI50": "> 100 µM (inactive)"}
{"compound.structure": "N[C@@H](CSCSC[C@H](N)C(=O)O)C(=O)O", "GI50": "> 104 µM (inactive)"}
{"compound.structure": "O=S(=O)(O)CCCC1S(=O)(=O)OCCOS1(=O)=O", "GI50": "> 100 µM (inactive)"}
{"compound.structure": "CC1=NN(C(=O)c2ccccc2O)C(=O)/C1=C/c1cccc([N+](=O)[O-])c1", "GI50": "6.81 µM (inactive)"}
{"compound.structure": "O=C(COc1ccc(Cl)cc1Cl)N/N=C/C=C/c1ccc([N+](=O)[O-])o1", "GI50": "11.9 µM (inactive)"}

Using the record for O=C(O)c1cc(O)c2c(c1)Cc1cccc(O)c1C2=O , report its GI50.
24.9 µM (inactive)

Using the record for Nc1nc(N)c2ncn(-c3ccc(Cl)cc3)c2n1 , report its GI50.
33.7 µM (inactive)

---

- System: NCI-H226
- protocol.text: NCI tumour cell line growth inhibition, 48 h
Activity calls are given as the source filed them. No stated cut-off is given here; in the data, active = GI50 up to about 1.1 µM and inactive = higher.
metric: GI50

{"compound": "COCCNC(=O)C1C(=O)N(CCOC)C(=O)/C1=N/N (stereo not drawn)", "endpoint.value": "> 100 µM (inactive)"}
{"compound": "CC(O[Si](C)(C)C(C)(C)C)[C@H](NC(=O)OCC(Cl)(Cl)Cl)C(=O)O (stereo partly drawn)", "endpoint.value": "> 100 µM (inactive)"}
{"compound": "Cc1ccc(Nc2nc(=O)[nH]c(=O)[nH]2)cc1N=[N+]=[N-]", "endpoint.value": "> 100 µM (inactive)"}

// moving on: another record for GI50
What reported GI50 corresponds to O=[N+]([O-])c1ccc(C2=Nc3ccccc3SC(c3ccccc3)C2)cc1 (stereo not drawn) on NCI-H226?
21.7 µM (inactive)

---

Reported GI50 values for the following compounds.
- Tested on: SK-MEL-28
- protocol.text: NCI tumour cell line growth inhibition, 48 h
Activity calls are given as the source filed them. Rule as the data show it: active = GI50 up to about 1.1 µM and inactive = higher.

Example cases with answers are listed next.
{"compound": "CC(Oc1ccc(OCC2CCCCC2)cc1)C(=O)NCCO (centres undefined)", "measured.target": "SK-MEL-28", "GI50": "> 100 µM (inactive)"}
{"compound": "COc1ccc(/C=C2\\CC3C4CC=C5C[C@@H](O)CC[C@]5(C)C4CC[C@]3(C)\\C2=N\\O)cc1OC (some centres undefined)", "measured.target": "SK-MEL-28", "GI50": "23 µM (inactive)"}
{"compound": "Cc1ccc2c(c1)C(=C(C#N)C#N)CCCS2(=O)=O", "measured.target": "SK-MEL-28", "GI50": "> 100 µM (inactive)"}

// moving on: another record for GI50
Using the record for CC(=O)C1=CSC2[C@H](NC(=O)Cc3ccccc3)C(=O)N2C1C(=O)OC(c1ccccc1)c1ccccc1 (some centres undefined) , report its GI50.
> 100 µM (inactive)

---

- Test system: MCF7
- protocol.text: NCI tumour cell line growth inhibition, 48 h
Active and inactive are the calls of the source. Cut-off read from the data, not from the text of the source: active = GI50 up to about 1.1 µM and inactive = higher.
metric: GI50

Example cases with answers are listed next.
{"compound": "Cc1cc(Nc2ccc(S(=O)(=O)O)cc2)c2ccccc2n1", "GI50": "> 100 µM (inactive)"}
{"compound": "N[C@@H](CSCSC[C@H](N)C(=O)O)C(=O)O", "GI50": "> 225 µM (inactive)"}

What reported GI50 corresponds to C=C1CC(Cn2ccc(=O)[nH]c2=O)(c2ccc(OC)cc2)OC1=O (stereo not drawn) on MCF7?
4.43 µM (inactive)

What reported GI50 corresponds to C1CSCCCSCCCSCCCSCCCSC1 on MCF7?
24.5 µM (inactive)

What reported GI50 corresponds to N#C/C(=C\c1cc(Cl)cc(Cl)c1)c1ccccn1 on MCF7?
5.61 µM (inactive)

What reported GI50 corresponds to Cc1nc(N)c(N2CCN(C#N)CC2)c(O)n1 on MCF7?
> 100 µM (inactive)

What reported GI50 corresponds to O=C1c2ccccc2-c2cc3ccccc3c(=O)n21 on MCF7?
29 µM (inactive)

---

- Test system: Malme-3M
- protocol.text: NCI tumour cell line growth inhibition, 48 h
Activity calls are given as the source filed them. No stated cut-off is given here; in the data, active = GI50 up to about 1.1 µM and inactive = higher.
Reported GI50 values for the following molecules.

Example cases with answers are listed next.
{"molecule": "O=C(N/N=C\\c1cccc2ccccc12)Nc1ccc([N+](=O)[O-])cc1", "GI50": "14.2 µM (inactive)"}
{"molecule": "C1COC2SC3=C(SC(=C4SC5=C(SCCS5)S4)S3)SC2O1 (centres undefined)", "GI50": "13 µM (inactive)"}
{"molecule": "C=CCCCN1CCCC(C)C1=S (centres undefined)", "GI50": "> 100 µM (inactive)"}

Using the record for Cc1c(Cl)ccc2c1NC(=O)C2(O)C1Cc2ccccc2C1=O (centres undefined) , report its GI50.
> 100 µM (inactive)

Using the record for C[C@]12Cc3cnc(-c4ccccc4)nc3C[C@@H]1CC[C@@H]1[C@@H]2CC[C@@]2(C)[C@H]1CC[C@]2(C)O , report its GI50.
18.9 µM (inactive)

Using the record for O=C1CCN(CCC(F)(F)C(F)(F)C(F)(F)C(F)(F)F)C(=S)N1 , report its GI50.
> 100 µM (inactive)

Using the record for OC1COC2CC(Nc3ccccn3)OC12 (centres undefined) , report its GI50.
> 100 µM (inactive)

Using the record for COc1cccc2c1C(=O)C1(O)CCCCC21 (centres undefined) , report its GI50.
> 100 µM (inactive)

Using the record for Clc1nc(Cl)c(Cl)c(-c2ccccc2)n1 , report its GI50.
5.61 µM (inactive)

---

- System: SNB-75
- protocol.text: NCI tumour cell line growth inhibition, 48 h
Active and inactive are the calls of the source. No stated cut-off is given here; in the data, active = GI50 up to about 1.1 µM and inactive = higher.
Reported GI50 values for the following molecules.

Example cases with answers are listed next.
{"molecule": "NC(Cc1ccccc1)C(=O)OCN1C(=O)C2C3C=CC(C2C1=O)C1C2C(=O)N(COC(=O)C(N)Cc4ccccc4)C(=O)C2C31 (stereo not drawn)", "measured.target": "SNB-75", "GI50": "26.2 µM (inactive)"}
{"molecule": "COc1ccc(/C=C2\\CC3C4CC=C5C[C@@H](O)CC[C@]5(C)C4CC[C@]3(C)\\C2=N\\O)cc1OC (stereo partly drawn)", "measured.target": "SNB-75", "GI50": "2.33 µM (inactive)"}

Using the record for O=C1C2C=CC1C1C(=O)OC(=O)C21 (stereo not drawn) , report its GI50.
> 100 µM (inactive)

---

Reported GI50 values for the following compounds.
- System: OVCAR-3
- protocol.text: NCI tumour cell line growth inhibition, 48 h
Active and inactive are the calls of the source. No stated cut-off is given here; in the data, active = GI50 up to about 1.1 µM and inactive = higher.

{"compound.structure": "COc1ccc2c(c1)/C(=C\\c1c(Cl)n(-c3ccccc3)c3ccccc13)C(=O)N2", "GI50": "2.25 µM (inactive)"}
{"compound.structure": "Nc1cc2[nH]c(=O)c3cc(Cl)ccc3c2cc1Cl", "GI50": "12.4 µM (inactive)"}
{"compound.structure": "Brc1ccc(/N=c2/nc3ccccn3n3nc(-c4ccccc4)cc23)cc1", "GI50": "22.1 µM (inactive)"}
{"compound.structure": "COC(=O)c1ccc(/C=C2\\N=C(C)OC2=O)cc1", "GI50": "> 100 µM (inactive)"}

// moving on: another record for GI50
Using the record for Cc1cc2c(cc1C)[n+]([O-])c(C(=O)/C=C/c1ccc(Cl)cc1)c(C)[n+]2[O-] , report its GI50.
33 µM (inactive)

---

- Test system: IGROV-1
- protocol.text: NCI tumour cell line growth inhibition, 48 h
The source made the active and inactive calls. Cut-off read from the data, not from the text of the source: active = GI50 up to about 1.1 µM and inactive = higher.
Reported GI50 values for the following compounds.

Using the record for O=C1c2ccccc2-c2cc3ccccc3c(=O)n21 , report its GI50.
> 100 µM (inactive)

Using the record for CNc1ccccc1-c1nc2ccccc2c(=O)o1 , report its GI50.
74.1 µM (inactive)

Using the record for O=C(COc1ccc(Cl)cc1Cl)N/N=C/C=C/c1ccc([N+](=O)[O-])o1 , report its GI50.
1.42 µM (inactive)

---

- Tested on: MDA-MB-435
- protocol.text: NCI tumour cell line growth inhibition, 48 h
Activity calls are given as the source filed them. Cut-off read from the data, not from the text of the source: active = GI50 up to about 1.1 µM and inactive = higher.
Reported GI50 values for the following molecules.

Using the record for O=C(/C=C1\Nc2ccc([N+](=O)[O-])cc2N\C1=C/C(=O)c1ccc(F)cc1)c1ccc(F)cc1 , report its GI50.
> 100 µM (inactive)

Using the record for CCCCCCCCCCCCCCCC(=O)Nc1ccn(C2CC(OP(=O)(O)OCC3OC(n4cc(F)c(=O)[nH]c4=O)CC3OC(C)=O)C(CO)O2)c(=O)n1 (stereo not drawn) , report its GI50.
34.7 µM (inactive)

Using the record for OC[C@H]1N[C@H](CO)[C@@H](O)[C@H]1O , report its GI50.
> 100 µM (inactive)
